System: 997726-040-R-J2-PDC tumor spheroids, viability
Assay: Anticancer human tumor 997726-040-R-J2-PDC patient-derived squamous cell lung carcinoma cell line growth inhibition [PI3K]
Settings: second compound 10 µM; first compound 0.01 µM; active compounds read low; spheroids with HUVEC and MSC
Source text: Combinatorial screen of targeted agents with the PI3K inhibitors inavolisib, alpelisib, duvelisib, and copanlisib in multi-cell type tumor spheroids A high-throughput screen of multi-cell type tumor spheroids was designed to identify active combinations of targeted small molecules and PI3K pathway inhibitors. […] Compounds. […] If the clinical Cmax for an agent had not been determined, the highest concentration tested was 10 microM. […]
Cut-off 50% on viability, T/C: below means Fulfilled, at or above means Not fulfilled.

[[record]]
molecule = "CC(=O)c1c(C)c2cnc(Nc3ccc(N4CCNCC4)cn3)nc2n(C2CCCC2)c1=O + Cc1nc(NC(=O)N2CCCC2C(N)=O)sc1-c1ccnc(C(C)(C)C(F)(F)F)c1"
system_under_test = "997726-040-R-J2-PDC tumor spheroids, viability"
group = "Fulfilled"

[[record]]
molecule = "Cn1ncnc1[C@H]1c2n[nH]c(=O)c3cc(F)cc(c23)N[C@@H]1c1ccc(F)cc1 + CC(Nc1ncnc2nc[nH]c12)c1cc2cccc(Cl)c2c(=O)n1-c1ccccc1"
system_under_test = "997726-040-R-J2-PDC tumor spheroids, viability"
group = "Not fulfilled"

[[record]]
molecule = "Cn1ncnc1[C@H]1c2n[nH]c(=O)c3cc(F)cc(c23)N[C@@H]1c1ccc(F)cc1 + Cc1nc(NC(=O)N2CCCC2C(N)=O)sc1-c1ccnc(C(C)(C)C(F)(F)F)c1"
system_under_test = "997726-040-R-J2-PDC tumor spheroids, viability"
group = "Fulfilled"

[[record]]
molecule = "CC(C)n1nc(-c2ccc3oc(N)nc3c2)c2c(N)ncnc21 + Cc1nc(NC(=O)N2CCCC2C(N)=O)sc1-c1ccnc(C(C)(C)C(F)(F)F)c1"
system_under_test = "997726-040-R-J2-PDC tumor spheroids, viability"
group = "Fulfilled"

[[record]]
molecule = "CC(C)n1nc(-c2ccc3oc(N)nc3c2)c2c(N)ncnc21 + CC(Nc1ncnc2nc[nH]c12)c1cc2cccc(Cl)c2c(=O)n1-c1ccccc1"
system_under_test = "997726-040-R-J2-PDC tumor spheroids, viability"
group = "Fulfilled"

[[record]]
molecule = "CCN1CCN(Cc2ccc(Nc3ncc(F)c(-c4cc(F)c5nc(C)n(C(C)C)c5c4)n3)nc2)CC1 + Cc1nc(NC(=O)N2CCCC2C(N)=O)sc1-c1ccnc(C(C)(C)C(F)(F)F)c1"
system_under_test = "997726-040-R-J2-PDC tumor spheroids, viability"
group = "Fulfilled"


* * *

system: 997726-040-R-J2-PDC tumor spheroids, viability; experiment: Anticancer human tumor 997726-040-R-J2-PDC cell line growth inhibition [PI3K]; conditions: second compound 1 µM; first compound 3.16 µM; spheroids with HUVEC and MSC; active = viability on the fitted dose curve at most 10% of control; inactive = the rest;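 also: spheroids exposed to compounds for seven days before readout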
Outcomes: true (1) = active, false (0) = inactive

[[record]]
compound = "C[C@@H](NC(=O)c1ncnc(N)c1Cl)c1ncc(C(=O)Nc2cc(C(F)(F)F)c(Cl)cn2)s1 + COc1c(OCCCN2CCOCC2)ccc2c3n(c(=NC(=O)c4cnc(N)nc4)nc12)CCN3"
group = "true (1)"

[[record]]
compound = "Cn1nccc1Nc1nccc(-c2ccn(C(CO)c3ccc(Cl)c(F)c3)c(=O)c2)n1 (stereo not given) + Cc1nc(NC(=O)N2CCCC2C(N)=O)sc1-c1ccnc(C(C)(C)C(F)(F)F)c1"
group = "false (0)"

[[record]]
compound = "CC(Cn1ccc(-c2ccc(C#N)c(Cl)c2)n1)NC(=O)c1cc(C(C)O)[nH]n1 (stereo not given) + Cc1nc(NC(=O)N2CCCC2C(N)=O)sc1-c1ccnc(C(C)(C)C(F)(F)F)c1"
group = "false (0)"

[[record]]
compound = "CC(C)NCC(C(=O)N1CCN(c2ncnc3c2C(C)CC3O)CC1)c1ccc(Cl)cc1 (stereo not given) + CC(Nc1ccc2c(c1)OCCn1cc(N3C(=O)OCC3C(F)F)nc1-2)C(N)=O"
group = "false (0)"

[[record]]
compound = "CC(Cn1ccc(-c2ccc(C#N)c(Cl)c2)n1)NC(=O)c1cc(C(C)O)[nH]n1 (stereo not given) + COc1c(OCCCN2CCOCC2)ccc2c3n(c(=NC(=O)c4cnc(N)nc4)nc12)CCN3"
group = "true (1)"


Origin of the recorded values: PubChem BioAssay AID1963964
